Field: inhibition at 10 µM. Provide a value for each of the compounds that follow.
molecular target: UniProt Q06187; test: biochemical; details: read-out: BTK inhibition (%), 0.75 uM BTK, […] probe 3l, 15 min preincubation
Sequence (Q06187 402-655 limits assumed): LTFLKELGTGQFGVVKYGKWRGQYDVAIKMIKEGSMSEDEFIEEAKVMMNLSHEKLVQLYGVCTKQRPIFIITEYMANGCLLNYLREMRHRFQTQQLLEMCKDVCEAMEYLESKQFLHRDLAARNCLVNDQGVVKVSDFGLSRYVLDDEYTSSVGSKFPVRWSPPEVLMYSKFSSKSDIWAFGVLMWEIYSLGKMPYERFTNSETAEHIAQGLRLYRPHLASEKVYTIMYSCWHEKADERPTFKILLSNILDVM
Give just the numeric value; % need not be written.

Using the record for COc1ccc(C2CNC(=O)C2)cc1OC1CCCC1 (centres unmarked) [PCM-0065474] , report its inhibition at 10 µM.
13.2

Next compound up: OC[C@H]1O[C@@H](Oc2cc(O)cc(/C=C/c3ccc(O[C@@H]4O[C@H](CO)[C@@H](O)[C@H](O)[C@H]4O)cc3O)c2)[C@H](O)[C@@H](O)[C@@H]1O [PCM-0216371]
-5.4

Next compound up: O=CN1CC/C(=C\c2ccc3c(c2)OCO3)C1=O [PCM-0215470]
10.8

Next compound up: Cc1cccc(-c2nn3c(c2-c2ccnc4ccc(C(N)=O)cc24)CCC3)n1 [PCM-0095269]
11.7

Next compound up: O=C1C[C@@H](c2ccc(O[C@@H]3O[C@H](CO)[C@@H](O)[C@H](O)[C@H]3O)cc2)Oc2cc(O)ccc21 [PCM-0214980]
10.9

Next compound up: c1ccc(-c2ccc(C(c3ccccc3)n3ccnc3)cc2)cc1 (centres unmarked) [PCM-0086296]
33.5

Next compound up: CCCNC(=O)c1cn2ncnc(Nc3cc(C(=O)NC4CC4)ccc3C)c2c1C [PCM-0215631]
-13.8

Next compound up: NC1=N[C@@]2(c3cc(NC(=O)c4ccc(F)cn4)ccc3F)COC[C@H]2CS1 [PCM-0095207]
-3.1

Next compound up: S=C(NCc1ccc2c(c1)OCO2)N1CCN(c2ncnc3c2oc2ccccc23)CC1 [PCM-0094997]
28.3

Next compound up: O=C(O)C[C@H](O)C[C@H](O)/C=C/c1c(C2CC2)nc2ccccc2c1-c1ccc(F)cc1 [PCM-0095199]
-36.6

Next compound up: CNc1cc(-c2cccc(Cl)c2Cl)nc(N)n1 [PCM-0215511]
-13.1

Next compound up: CC(C)[C@H](N)C(=O)OCCOCn1cnc2c(=O)[nH]c(N)nc21 [PCM-0086005]
-7.8

Next compound up: C=CC(=O)Nc1cccc(Oc2nc(Nc3ccc(N4CCN(C)CC4)cc3)ncc2Cl)c1 [PCM-0095023]
91.7

Next compound up: O=S(=O)(O)NC1CCCCC1 [PCM-0090618]
3.9

Next compound up: O=C(O)c1ccc(Nc2ncc3c(n2)-c2ccc(Cl)cc2C(c2c(F)cccc2F)=NC3)cc1 [PCM-0095077]
79.3

Next compound up: COc1ccccc1OCC(O)COC(N)=O (centres unmarked) [PCM-0085814]
14.8

Next compound up: Cc1ccccc1C(C(=O)NC1CCCCC1)N(C(=O)Cn1ccnc1C)c1cccc(F)c1 (centres unmarked) [PCM-0215210]
-6.9
